Molecular target: UniProt P81908
Sequence (P81908 whole entry): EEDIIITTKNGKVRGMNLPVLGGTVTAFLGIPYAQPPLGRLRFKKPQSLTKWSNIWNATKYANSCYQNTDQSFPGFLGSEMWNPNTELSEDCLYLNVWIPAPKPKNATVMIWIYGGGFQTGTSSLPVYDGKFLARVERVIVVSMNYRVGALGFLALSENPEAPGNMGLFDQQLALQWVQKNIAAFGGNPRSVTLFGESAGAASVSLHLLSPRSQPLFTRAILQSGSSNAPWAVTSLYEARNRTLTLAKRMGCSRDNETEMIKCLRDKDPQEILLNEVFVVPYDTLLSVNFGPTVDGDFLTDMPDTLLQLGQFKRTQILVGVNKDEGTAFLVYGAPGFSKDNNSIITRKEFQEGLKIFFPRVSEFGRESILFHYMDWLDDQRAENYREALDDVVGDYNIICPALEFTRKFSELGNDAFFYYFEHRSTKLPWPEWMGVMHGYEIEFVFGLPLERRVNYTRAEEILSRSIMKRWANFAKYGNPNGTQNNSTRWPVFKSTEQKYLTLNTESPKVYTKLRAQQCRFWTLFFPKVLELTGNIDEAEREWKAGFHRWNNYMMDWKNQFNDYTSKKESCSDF
Conditions: at 2 mg/mL
Description: Inhibition of horse BChE at 2 mg/ml by Ellman's method
READOUT: inhibition (%)
Quick reminder: number only, in %, skip the unit.

Sample CC(=O)N[C@H]1CN2CC[C@H](O)[C@@H]2[C@@H](O)[C@@H]1O ; inhibition observed: 9.19

Sample COc1cc2c(cc1OC)-c1cc3ccc(OC)c(OC)c3c[n+]1CC2.O.[Cl-] [PALMATINE CHLORIDE HYDRATE] ; inhibition observed: 7.47

Sample O=c1cc(-c2ccc(O)c(O)c2)oc2cc(O)c([C@@H]3O[C@H](CO)[C@@H](O)[C@H](O)[C@H]3O)c(O)c12 ; inhibition observed: -4.72

Sample CN1Cc2c(ccc3c2OCO3)[C@@H]2[C@H]1c1cc3c(cc1C[C@@H]2O)OCO3 ; inhibition observed: 6.72

Sample CC(C)=CCC/C(C)=C/COc1ccc2ccc(=O)oc2c1 ; inhibition observed: 1.5

// data source = ChEMBL document CHEMBL2163249
